Data origin: PubChem BioAssay AID1159580

assay.summary: chemical genetic growth profiling, strain panel (AID 1159580);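 also: tested at 20 µM; growth read once vehicle control cultures reached saturation at 30 °C; 1 = growth at the plate median or of vehicle wells; lower values mean less growth of the strain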
run.conditions: S. cerevisiae deletion strains, growth OD, locus YDL035C, strain GPR1, stronger effect = lower value
About 2,000 (36%) of roughly 5,500 compounds were called active. Inconclusive results (about 18%) are left out. Some of the results follow.
Below: a set of entries, each annotated with reported normalized growth.
The response must contain the number and no unit.

- molecule: "CC[C@H]1OC(=O)[C@H](C)[C@@H](O[C@H]2C[C@@](C)(OC)[C@@H](O)[C@H](C)O2)[C@H](C)[C@@H](O[C@@H]2O[C@H](C)C[C@H](N(C)C)[C@H]2O)[C@](C)(O)C[C@@H](C)/C(=N/OCOCCOC)[C@H](C)[C@@H](O)[C@]1(C)O"
  endpoint.label: "normalized growth"
  value.reported: 1.01
- molecule: "O=c1c(O)c(-c2ccccc2)oc2ccc3occc3c12"
  endpoint.label: "normalized growth"
  value.reported: 0.849
- molecule: "CC1=C(C(=O)O)N2C(=O)[C@@H](NC(=O)[C@@H](N)c3ccc(O)cc3)[C@H]2SC1"
  endpoint.label: "normalized growth"
  value.reported: 0.956
- molecule: "N[C@@H](C(=O)N[C@@H]1C(=O)N2C(C(=O)O)=C(Cl)CS[C@H]12)c1ccccc1"
  endpoint.label: "normalized growth"
  value.reported: 1.01
- molecule: "CC(=O)NS(=O)(=O)c1ccc(N)cc1"
  endpoint.label: "normalized growth"
  value.reported: 1

Q: For CNC(=O)N(C)c1nnc(C(C)(C)C)s1 , what is its reported normalized growth?
A: 1.02

Q: For COC(=O)C[C@H]1C(C)(C)[C@@H](OC(C)=O)[C@@H]2CC3=C4CC(=O)O[C@@H](c5ccoc5)[C@]4(C)CCC3[C@@]1(C)C2=O (stereo partly drawn) , what is its reported normalized growth?
A: 0.986

Q: For O=c1c(O)c(-c2ccccc2)oc2cc(O)ccc12 , what is its reported normalized growth?
A: 0.432

* * *

assay.summary: chemical genetic growth profiling, strain panel (AID 1159580)
run.conditions: S. cerevisiae deletion strains, growth OD, locus YBR171W, strain sec66, stronger effect = lower value
Hit rate of the full screen: of about 5,500 compounds, about 2,000 (36%) were called active. Roughly 18% stayed inconclusive and do not appear here. The list shows a part of the results.
Below: a set of entries, each annotated with reported normalized growth.

Consider the reported normalized growth for these compounds:
- compound: "O=C1NS(=O)(=O)c2ccccc21"
  normalized growth: "1.03 (inactive)"
- compound: "CC(=O)CCCCn1c(=O)c2c(ncn2C)n(C)c1=O"
  normalized growth: "1.04 (inactive)"
- compound: "COc1cc(O)ccc1C(C)=O"
  normalized growth: "1.01 (inactive)"
- compound: "CC(C)=CCC/C(C)=C/CO"
  normalized growth: "0.973 (inactive)"
- compound: "CC(=O)Oc1c(C)c(C)c2c(c1C)CCC(C)(CCCC(C)CCCC(C)CCCC(C)C)O2 (centres undefined)"
  normalized growth: "1 (inactive)"

Q: For CC12CCC(O)CC1CCc1ccccc12 (centres undefined) , what is its reported normalized growth?
A: 0.938 (inactive)

Q: For CC(C)N1C(=O)c2ccccc2NS1(=O)=O , what is its reported normalized growth?
A: 0.968 (inactive)

Q: For COc1ccc(-c2c(O)c3c(OC)c4c(cc3oc2=O)OC(C)(C)C=C4)cc1 , what is its reported normalized growth?
A: 0.919 (inactive)

Q: For Cn1c(=O)[nH]c2ncn(C)c2c1=O , what is its reported normalized growth?
A: 0.95 (inactive)

Q: For CCC[C@@H]1C[C@@H](C(=O)N[C@H]([C@H]2O[C@H](SC)[C@H](O)[C@@H](O)[C@H]2O)[C@H](C)O)N(C)C1 , what is its reported normalized growth?
A: 0.962 (inactive)

* * *

assay.summary: chemical genetic growth profiling, strain panel (AID 1159580)
run.conditions: S. cerevisiae deletion strains, growth OD, locus YDL028C, strain MPS1
Hit rate of the full screen: of about 5,500 compounds, about 2,000 (36%) were called active. Inconclusive results (about 18%) are left out. Rule as the data show it: active = normalized growth mostly below about 0.91 (no sharp cut-off); inconclusive = no clear call, values can overlap the other calls; inactive = mostly above about 0.92. Some of the results follow.
Write down the outcome that applies. Available outcomes: Y = active, N = inactive

- compound: "Cc1csc2c(N3CCN(C(=S)Nc4ccc(C(F)(F)F)cc4)CC3)ncnc12"
  class: "N"
- compound: "CC(C)c1cccc(C(C)C)c1OC(=O)NC(=O)c1c(Cl)cccc1Cl"
  class: "N"
- compound: "CCOC(=O)C(O)(c1ccc(NC(=O)c2ccc(Cl)c(Cl)c2)cc1)C(F)(F)F (stereo unspecified)"
  class: "N"
- compound: "O=C1c2ccccc2C(=O)c2sccc21"
  class: "Y"
- compound: "Cc1csc2ncnc(N3CCN(C(=S)Nc4ccc(C(F)(F)F)cc4)CC3)c12"
  class: "N"
- compound: "CC1SC(c2cccnc2)N(c2ccc(Cl)cc2)C1=O (stereo unspecified)"
  class: "N"
- compound: "Cn1cc(Br)c(-c2cccc(NS(=O)(=O)c3ccc(Cl)cc3)c2)n1"
  class: "N"
- compound: "O=S(=O)(Nc1c(F)cccc1F)c1ccc(Cl)c(Cl)c1"
  class: "N"

Q: Could you kindly confirm the outcome this assay logged for O=C1C(NCc2ccccc2)=C(NCc2ccccc2)C(=O)c2ccccc21 ?
A: N

Q: Could you kindly confirm the outcome this assay logged for O=[N+]([O-])c1ccc(Sc2ccccc2)c([N+](=O)[O-])c1 ?
A: Y

Q: Could you kindly confirm the outcome this assay logged for NNC(=O)c1oc2nc(-c3ccccc3)cc(-c3ccccc3)c2c1N ?
A: N

* * *

assay.summary: chemical genetic growth profiling, strain panel (AID 1159580);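 also: tested at 20 µM; growth read once vehicle control cultures reached saturation at 30 °C; 1 = growth at the plate median or of vehicle wells; lower values mean less growth of the strain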
run.conditions: S. cerevisiae deletion strains, growth OD, strain TSCII, stronger effect = lower value
About 2,000 (36%) of roughly 5,500 compounds were called active. Not shown: some 18% with an inconclusive outcome. Some of the results follow.
Below: a set of entries, each annotated with reported normalized growth.
The response must contain the number and no unit.

- compound: "COC(=S)Nc1cc(Cl)cc(Cl)c1"
  value.reported: 0.913

Q: For Cc1ccc2nc3c(nc2c1)-c1ccccc1C3=O , what is its reported normalized growth?
A: 0.874

* * *

assay.summary: chemical genetic growth profiling, strain panel (AID 1159580);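 also: tested at 20 µM; growth read once vehicle control cultures reached saturation at 30 °C; 1 = growth at the plate median or of vehicle wells; lower values mean less growth of the strain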
run.conditions: S. cerevisiae deletion strains, growth OD, locus YDR388W
Screen size: about 5,500 compounds; about 2,000 (36%) were called active. Not shown: some 18% with an inconclusive outcome. Cut-off read from the data, not from the text of the source: active = normalized growth mostly below about 0.91 (no sharp cut-off); inconclusive = no clear call, values can overlap the other calls; inactive = mostly above about 0.92. Some of the results follow.
Write down the outcome that applies. Available outcomes: class 1 (active), class 0 (inactive)

Worked cases, answers included:
- compound: "CC(C)[C@@H]1CC[C@@H](C)CC1=O"
  class: "class 0"
- compound: "COC(=O)C(O)[C@H]1C(C)(C)[C@@H](OC(C)=O)[C@@H]2CC3=C4CC(=O)O[C@@H](c5ccoc5)[C@]4(C)CCC3[C@@]1(C)C2=O (stereo partly drawn)"
  class: "class 0"
- compound: "O=C1c2ccccc2C(=O)c2ccccc21"
  class: "class 0"
- compound: "O=C1C=C(O)c2ccccc2C1=O"
  class: "class 0"
- compound: "Oc1cccc2cccnc12"
  class: "class 1"
- compound: "CC[C@H]1OC(=O)[C@H](C)[C@@H](O[C@H]2C[C@@](C)(OC)[C@@H](O)[C@H](C)O2)[C@H](C)[C@@H](O[C@@H]2O[C@H](C)C[C@H](N(C)C)[C@H]2O)[C@](C)(O)C[C@@H](C)/C(=N/OCOCCOC)[C@H](C)[C@@H](O)[C@]1(C)O"
  class: "class 0"
- compound: "C=C(C)C1Cc2c(ccc3c(=O)c4c(oc23)COc2cc(OC)c(OC)cc2-4)O1 (stereo not drawn)"
  class: "class 0"
- compound: "C=C(C)C1Cc2c(ccc(C(=O)O)c2O)O1 (stereo not drawn)"
  class: "class 0"

Q: Could you kindly confirm the outcome this assay logged for CNC(C)(C)Cc1ccccc1 ?
A: class 0

Q: Could you kindly confirm the outcome this assay logged for C[N+]1(C)CCCC(OC(=O)C(O)(c2ccccc2)c2ccccc2)C1 (stereo not drawn) ?
A: class 0

Q: Could you kindly confirm the outcome this assay logged for CN1C(=O)CC[C@H]1c1cccnc1 ?
A: class 0

Q: Could you kindly confirm the outcome this assay logged for O=C(O)c1cccnc1C(=O)O ?
A: class 0

Q: Could you kindly confirm the outcome this assay logged for CC(C)C1CCC(C(=O)N[C@@H](Cc2ccccc2)C(=O)O)CC1 (stereo partly drawn) ?
A: class 0

* * *

assay.summary: chemical genetic growth profiling, strain panel (AID 1159580);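 also: tested at 20 µM; growth read once vehicle control cultures reached saturation at 30 °C; 1 = growth at the plate median or of vehicle wells; lower values mean less growth of the strain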
run.conditions: S. cerevisiae deletion strains, growth OD, locus YOR069W, strain VPS5, stronger effect = lower value
Out of some 5,500 compounds screened, about 2,000 (36%) were called active. Roughly 18% stayed inconclusive and do not appear here. This is one part of the list.
Below: a set of entries, each annotated with reported normalized growth.
The response must contain the number and no unit.

Consider the reported normalized growth for these compounds:
- compound: "C[C@H]1C(=O)CCC2[C@]3(C)CC[C@@]4(C)C5CC(C)(C)CC[C@]5(C)CC[C@]4(C)C3CC[C@@]21C (stereo partly specified)"
  normalized growth: 1.01
- compound: "CNC(C)(C)Cc1ccccc1"
  normalized growth: 1.01

Q: For Cn1c(=O)c2c(ncn2CCO)n(C)c1=O , what is its reported normalized growth?
A: 1.01

Q: For NS(=O)(=O)c1cc2c(cc1Cl)NCNS2(=O)=O , what is its reported normalized growth?
A: 1.01
